- Target: UniProtKB P51449
- Procedure text: RORγ Gal4 Reporter Gene Assay in 293T cells (firefly and renilla luciferase)
- Type: cell-based, human
- Conditions: third value of the cell; Gal4 reporter gene assay in 293T cells, renilla normalised luciferase
Measured attribute: pIC50 (REN)
# output: bare number, no unit

Sample answers from the record:
| Molecule | Target | pIC50 (REN) |
| --- | --- | --- |
| Cc1c(C(=O)NCC(C)(C)O)cc(-c2ccc(S(=O)(=O)NC(C)(C)C)c(C(C)(C)C)c2)n1CC1CCCCC1 [9/8] | UniProtKB P51449 | 7.1 |
| Cc1c(C(=O)NCC2COC2)cc(-c2cc(C(C)(C)C)c3c(c2)C2(CCO3)CC2)n1CC1CCCCC1 [1/100] | UniProtKB P51449 | 7.2 |

Would you kindly look at the next entry?
Task: Could you tell me which pIC50 (REN) is on file for Cc1c(C(=O)NC2COC2)cc(-c2cc(C(C)(C)C)nc(C(C)(C)C)c2)n1CC1CCCCC1 [1/122] ?
Output: 7.0

----------
pIC50 (REN) reference
- Target: RORγ (UniProt P51449)
- Procedure text: RORγ Gal4 Reporter Gene Assay in 293T cells (firefly and renilla luciferase)
- Format: cell-based, human

| Compound | pIC50 (REN) |
| --- | --- |
| Cc1c(C(=O)NC2CCOCC2)cc(-c2ccc(S(=O)(=O)N3CCCC(C(F)(F)F)C3)c(C(C)(C)C)c2)n1CC1CCCCC1 (centres unmarked) | 6.6/6.8/6.9 |
| Cc1c(C(=O)NC2CCOCC2)cc(-c2ccc(S(=O)(=O)NC(C)(C)C(F)(F)F)c(C(F)(F)F)c2)n1CC1CCCCC1 | 6.7/7.8/8.0 |

Task: Could you tell me which pIC50 (REN) is on file for Cc1c(C(=O)NCCC(C)(C)C(=O)O)cc(-c2cc(C(C)(C)C)cc(C(F)(F)F)c2)n1CC1CCCCC1 ?
Output: 5.7/6.8/6.7

Task: Could you tell me which pIC50 (REN) is on file for Cc1c(C(=O)NC2CCOCC2)cc(-c2ccc(-c3nnc(C(C)(C)C)o3)c(C(C)(C)C)c2)n1CC1CCCCC1 ?
Output: 6.3/6.9/6.9

Task: Could you tell me which pIC50 (REN) is on file for Cc1c(C(=O)NCC(C)(C)NC(=O)CCO)cc(-c2cc(C(C)(C)C)c3c(c2)C2(CCO3)CC2)n1CC1CCCCC1 ?
Output: 6.0/7.3/7.3

Task: Could you tell me which pIC50 (REN) is on file for Cc1c(C(=O)NCC(C)(C)O)cc(-c2cc(C(C)(C)C)cc(C3(C)CC3)c2)n1CC1CCCCC1 ?
Output: 6.5/7.2/7.2

Task: Could you tell me which pIC50 (REN) is on file for Cc1c(C(=O)NCC(C)(C)c2nnn[nH]2)cc(-c2cc(C(C)(C)O)cc(C3(C)CC3)c2)n1CC1CCCCC1 ?
Output: 6.1/6.7/6.8

Task: Could you tell me which pIC50 (REN) is on file for Cc1c(C(=O)NCc2cocn2)cc(-c2cc(C(C)(C)C)c3c(c2)C2(CCO3)CC2)n1CC1CCCCC1 ?
Output: 6.0/6.1/6.1

Task: Could you tell me which pIC50 (REN) is on file for COC1CN(C(=O)c2cc(-c3cc(C(C)(C)C)cc(C(C)(C)C)c3)n(CC3CCCCC3)c2C)C1 ?
Output: 6.5/6.4/6.3

Task: Could you tell me which pIC50 (REN) is on file for COCCS(=O)(=O)NC(C)(C)CNC(=O)c1cc(-c2cc(C(C)(C)C)c3c(c2)C2(CCO3)CC2)n(CC2CCCCC2)c1C ?
Output: 6.7/7.2/7.2

Task: Could you tell me which pIC50 (REN) is on file for Cc1c(C(=O)NCC2CCS(=O)(=O)CC2)cc(-c2cc(C(C)(C)O)cc(C3(C)CC3)c2)n1CC1CCCCC1 ?
Output: 5.8/7.3/7.3

Task: Could you tell me which pIC50 (REN) is on file for Cc1c(C(=O)NCC2(O)CCS(=O)(=O)CC2)cc(-c2cc(C(C)(C)C)c3c(c2)C2(CCO3)CC2)n1CC1CCCCC1 ?
Output: 6.2/7.1/7.1

Task: Could you tell me which pIC50 (REN) is on file for Cc1c(C(=O)NC2(C#N)CCOCC2)cc(-c2ccc(S(=O)(=O)NC(C)(C)C)c(C(C)(C)C)c2)n1CC1CCCCC1 ?
Output: 6.4/6.6/6.6

Task: Could you tell me which pIC50 (REN) is on file for COCC(=O)NC(C)(C)CNC(=O)c1cc(-c2cc(C(C)(C)C)cc(C3(C)CC3)c2)n(CC2CCCCC2)c1C ?
Output: 6.4/7.6/7.5
